# test: qHTS of pediatric cancer cell lines to identify multiple opportunities for drug repurposing: Confirmatory screen for OHS-50 cells (AID 1347128);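 note: compound exposure lasted 48 h at 37 degrees C; nearly all actives have a fitted effect of over 55% in size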
# details: OHS-50 osteosarcoma cells viability; series mostly up to 45.9 µM
Inconclusive results are not listed. Calls of active or inactive are those of the source. Calls come from the whole dose curve; as a rule, active = well fitted cell-killing curve with a large enough effect; inconclusive = small, poorly fitted or top-dose-only effect, or effect the other way; inactive = no such curve, though single readings can be large or run the other way.
Your response should consist of one outcome taken from yes (active), no (inactive)

COc1cc2ncnc(Nc3ccc(F)c(Cl)c3)c2cc1OCCCN1CCOCC1; yes

Ask | Please state the recorded outcome for this compound: CN[C@@H](C)C(=O)N[C@H]1CN(C(=O)CC(C)C)CC[C@H]2CC[C@@H](C(=O)NC(c3ccccc3)c3ccccc3)N2C1=O
Reply | no

Ask | For this compound, state the assay outcome: CC[C@]1(O)C[C@@H]2CN(CCc3c([nH]c4ccccc34)[C@@](C(=O)OC)(c3cc4c(cc3OC)N(C=O)[C@@H]3C45CCN4CC=C[C@](CC)([C@H]45)[C@@H](OC(C)=O)[C@]3(O)C(=O)OC)C2)C1 (stereo partly drawn)
Reply | no

Ask | Tell me the recorded outcome of this test for CO[C@H]1C(=O)[C@]2(C)[C@@H](OC)C[C@H]3OC[C@@]3(OC(C)=O)[C@H]2[C@H](OC(=O)c2ccccc2)[C@]2(O)C[C@H](OC(=O)[C@H](O)[C@@H](NC(=O)OC(C)(C)C)c3ccccc3)C(C)=C1C2(C)C .
Reply | yes

* * *

# test: Cell Viability - LYMP2-002 (AID 977);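 note: compound exposure lasted 24 h at 37 °C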
# details: LYMP2-002 lymphoblastoid cell viability, qHTS; series mostly up to 92.2 µM
Records with an inconclusive call do not appear. Activity calls are given as the source filed them. The call rests on the fitted dose curve; in most records, active means well fitted cell-killing curve with a large enough effect; inconclusive means small, poorly fitted or top-dose-only effect; inactive means flat fitted curve, though single readings scatter.
Give your call using only these classes: active, inactive

Known results for compounds:
CC(=O)O[C@]1(C(C)=O)CC[C@H]2[C@@H]3C=C(Cl)C4=CC(=O)[C@@H]5C[C@@H]5[C@]4(C)[C@H]3CC[C@@]21C; inactive
CC/C(=C(\c1ccccc1)c1ccc(OCCN(C)C)cc1)c1ccccc1; active
O=c1c(-c2ccc(O)cc2)coc2cc(O)ccc12; inactive

Ask | GET /call?item= CN(C)CCC(c1ccccc1)c1ccccn1 (configuration not stated) returns the recorded outcome of this test.
Reply | inactive

Ask | Identify the outcome logged in this assay for the compound shown: O=c1c(O)c(-c2ccc(O)cc2)oc2cc(O)cc(O)c12
Reply | inactive

Ask | What did this assay record as the result for CCn1cc(C(=O)O)c(=O)c2ccc(C)nc21 ?
Reply | inactive

Ask | Hello, I am checking results. What call was entered for CCCNC(=O)NS(=O)(=O)c1ccc(Cl)cc1 ?
Reply | inactive

* * *

# test: Cell Proliferation Assay against the TMD8 Cell Line (AID 651645);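 note: cells exposed to compound for 48 h before reading; 100% = DMSO and 0% = 9.2 µM bortezomib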
# details: TMD8 DLBCL cell line proliferation/viability; at 46.1 µM (top of the series) unless noted
Please go through the items and note down their viability (% of control).
Give bare numbers, in %.

Please state, for each entry, its recorded viability (% of control).
1. COc1cc(N2CCC(N3CCN(C)CC3)CC2)ccc1Nc1ncc(Cl)c(Nc2ccccc2S(=O)(=O)C(C)C)n1
2. O=C(Nc1cc(Cl)cc2c1[nH]c1cnccc12)c1cccnc1
3. CN(C)C1CCN(C(=O)c2ccc(NC(=O)Nc3nc(N4CCOCC4)nc(N4CCOCC4)n3)cc2)CC1
4. CO[C@H]1C[C@@H]2CC[C@@H](C)[C@@](O)(O2)C(=O)C(=O)N2CCCC[C@@H]2C(=O)O[C@H]([C@H](C)C[C@@H]2CC[C@H](OCCO)[C@H](OC)C2)CC(=O)[C@H](C)C=C(C)[C@@H](O)[C@@H](OC)C(=O)[C@H](C)C[C@H](C)C=CC=CC=C1C
5. c1ccc2c(-c3cnn4cc(-c5ccc(N6CCNCC6)cc5)cnc34)ccnc2c1
6. CC(C)(C)c1cc(C(=O)O)c(NC(=O)Nc2ccc3[nH]ncc3c2)s1
7. COc1cc2ncnc(Nc3ccc(F)c(Cl)c3)c2cc1OCCCN1CCOCC1
8. NC(CO)(CO)CCc1ccc(Sc2cccc(OCc3ccccc3)c2)cc1Cl

Reply |
1. 3.22
2. 1.73
3. 2.35
4. -0.307
5. 0.905
6. 99.7
7. 50.3
8. 0.474

Answer for every listed entry: what is its viability (% of control)? The entries follow.
1. CO[C@H]1C=CC=C(C)C(=O)NC2=CC(=O)C(NCCN(C)C)=C(C[C@@H](C)C[C@H](OC)[C@@H](O)[C@@H](C)C=C(C)[C@@H]1OC(N)=O)C2=O
2. OC[C@H]1O[C@@H](n2cnc3c2NC=NC[C@@H]3O)C[C@H]1O
3. CC(C)(C)COc1ccc(-n2cc(C(=O)O)cn2)cc1C#N
4. CCOc1ccc(Nc2nc(-c3c(C)nc4ccccn34)cs2)cc1
5. O=c1cc(N2CCOCC2)oc2c(-c3cccc4c3sc3ccccc34)cccc12

Reply |
1. 3.74
2. 95.3
3. 88.1
4. 5.58
5. 2.51

Look at each molecule and report its viability (% of control).
1. COc1cc(Nc2ncc(F)c(Nc3ccc4c(n3)NC(=O)C(C)(C)O4)n2)cc(OC)c1OC
2. O=C(Nc1ccccc1-c1cn2c(CN3CCNCC3)csc2n1)c1cnc2ccccc2n1
3. COc1cccc2c1CCCC2CCCN1CCN(C2CCCCC2)CC1 (stereo not drawn)

Reply |
17.5
2.49
1.09

Ask | Note viability (% of control) for the molecule shown: CC(=O)Nc1ccc([C@H](C)C(=O)Nc2ncc(C(C)C)s2)cc1
Reply | -0.0002
